Tested on: PPARg:RXRa IVT, anti-PPARg (NR concentration 270 nM, RXRa partner concentration 90 nM)
METHOD NOTES: PBM binding z-score (relative to random genomic background probes); higher = stronger binding; sequences stand for … in GC…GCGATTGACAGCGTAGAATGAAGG
Categorized via PBM binding z-score: lower band: < 2; central band: ≥ 2 and < 4; upper band: ≥ 4

>  <SEQUENCE ENTRY>
CCTACTGGGCCAAGGTCATTGTTCAGTCAAAGCA

>  <ANSWER LABEL>
upper band

$$$$
>  <SEQUENCE ENTRY>
TGAATGAGGCTATAAGATCAGGGAACGTTGCAAA

>  <ANSWER LABEL>
lower band

$$$$
>  <SEQUENCE ENTRY>
CGTCCAAGGTCATAGTAGGTCAGTGAAGACAGAT

>  <ANSWER LABEL>
upper band

$$$$
>  <SEQUENCE ENTRY>
TCATATAGGTAAACAGGTGAACGTCCGTAAGTTA

>  <ANSWER LABEL>
upper band

$$$$
>  <SEQUENCE ENTRY>
CCTCACGGGTCACTCCAGGTTATAGCATCGGAGT

>  <ANSWER LABEL>
lower band

$$$$
>  <SEQUENCE ENTRY>
ACTTACGCGTCAACGAGGTTATAGCACGCGTATA

>  <ANSWER LABEL>
lower band

$$$$
>  <SEQUENCE ENTRY>
ATCTCTAGGTAAAGATAATTCAGTGAATGCAAAT

>  <ANSWER LABEL>
lower band

$$$$
>  <SEQUENCE ENTRY>
CGTCCAAGGTCAATACTAGGTCAGTGAAAGCATT

>  <ANSWER LABEL>
upper band

$$$$
>  <SEQUENCE ENTRY>
CCTACTAGGCCAAAAAGGTCATTGATGCCGATAA

>  <ANSWER LABEL>
upper band

$$$$
>  <SEQUENCE ENTRY>
CGTCCAAGGACATAGGAGGTCAGTGAAGACAGAT

>  <ANSWER LABEL>
lower band

$$$$
>  <SEQUENCE ENTRY>
TGTCAAAGTTGAAAGGTAACGTAAGTATCCACAC

>  <ANSWER LABEL>
central band

$$$$
>  <SEQUENCE ENTRY>
GCTTACGGGTCAAATGTTATAGCATGAATAGAAT

>  <ANSWER LABEL>
upper band

$$$$
>  <SEQUENCE ENTRY>
GGAACGTGGGCATTCGAGTTGATAGCATGGCGAT

>  <ANSWER LABEL>
lower band

$$$$
>  <SEQUENCE ENTRY>
CCTACTGGGCCAAAAAGGTCATGGATGCCGATAA

>  <ANSWER LABEL>
upper band

$$$$
>  <SEQUENCE ENTRY>
GCTAGTTGGTTAGTAAAAGGTCACACACCGGTCG

>  <ANSWER LABEL>
central band

$$$$
>  <SEQUENCE ENTRY>
GAAACAGGGTCAGCTAGAGGCCAGAGTATGGAAA

>  <ANSWER LABEL>
central band

$$$$
>  <SEQUENCE ENTRY>
CGACAAAGTTCAAGGTAACGTAACAGAAAGCAGC

>  <ANSWER LABEL>
lower band

$$$$
>  <SEQUENCE ENTRY>
TTACCAAGGTGAAGGTTGTTGATCCCTCTGTAGA

>  <ANSWER LABEL>
central band

$$$$
>  <SEQUENCE ENTRY>
CCTCCAAGGTCAAGGTCAGTGAAAGAGACTCGAA

>  <ANSWER LABEL>
upper band

$$$$
>  <SEQUENCE ENTRY>
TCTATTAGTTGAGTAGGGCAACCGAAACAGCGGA

>  <ANSWER LABEL>
central band

$$$$
>  <SEQUENCE ENTRY>
ACTAACAGGCCAAGTTTGGGTCACTCAAACAAAG

>  <ANSWER LABEL>
lower band

$$$$
>  <SEQUENCE ENTRY>
AGTCAAAGTTCACAAGGTAACGTAAGATTCAGCT

>  <ANSWER LABEL>
central band

$$$$
>  <SEQUENCE ENTRY>
ATCTCTACGTAAAGTTCAGTGAAAGATCGATAGA

>  <ANSWER LABEL>
lower band

$$$$
>  <SEQUENCE ENTRY>
CCTTACGGGTCACGAGGATATAGCACGACGAGCG

>  <ANSWER LABEL>
upper band

$$$$
>  <SEQUENCE ENTRY>
CCTCGGAGGACCGAAGGTCAGAGCTGTCCGCTTT

>  <ANSWER LABEL>
lower band

$$$$
>  <SEQUENCE ENTRY>
TCTAGCAGGCCAGAGCGTCACTCAAGAGGTACGG

>  <ANSWER LABEL>
lower band

$$$$
>  <SEQUENCE ENTRY>
CATACAGGGTCAACTAGGCCAGAGTAGGGACGGC

>  <ANSWER LABEL>
upper band

$$$$
>  <SEQUENCE ENTRY>
GCTTGCAGATCAAGGTTAAGAAAGACTAAGCTAA

>  <ANSWER LABEL>
lower band

$$$$
>  <SEQUENCE ENTRY>
CGAACGAGGGAATGAGTTGATAGCAAATGCCGAT

>  <ANSWER LABEL>
lower band

$$$$
>  <SEQUENCE ENTRY>
TCATATAGGTAATACACGTGAAAGTCGGCATCTA

>  <ANSWER LABEL>
central band

$$$$
>  <SEQUENCE ENTRY>
CCTCGGACGACAGAAGGTCAGAGCTGTCCGCTTT

>  <ANSWER LABEL>
lower band

$$$$
>  <SEQUENCE ENTRY>
CTCGAAAGGTCGTGCTCAGGTCAGTATACCAAAC

>  <ANSWER LABEL>
central band

$$$$
>  <SEQUENCE ENTRY>
GCGACTGGGGCAAAGCAGGATACCATAAGGTTGG

>  <ANSWER LABEL>
central band

$$$$
>  <SEQUENCE ENTRY>
GCTCAGAGGACAAGGTCAGAGCTTTGTCCGTAGA

>  <ANSWER LABEL>
lower band

$$$$
>  <SEQUENCE ENTRY>
GCTGCTAGGACAGGTTGGTCAGCTAACGGGTACG

>  <ANSWER LABEL>
lower band

$$$$
>  <SEQUENCE ENTRY>
GCATTTAGGTAATACAAGGTGAAAGTCCGATTGT

>  <ANSWER LABEL>
central band

$$$$
>  <SEQUENCE ENTRY>
CCGAATAGGTTATGGGGCATTCAGGCAACGGTGA

>  <ANSWER LABEL>
lower band

$$$$
>  <SEQUENCE ENTRY>
TCTGCTAGGTCAGTTGGTCAGCTGACGAGCTGCC

>  <ANSWER LABEL>
central band

$$$$
>  <SEQUENCE ENTRY>
TCATATAGGTAAACAGCTGAAAGTCCGTAAGTTA

>  <ANSWER LABEL>
central band

$$$$
>  <SEQUENCE ENTRY>
CGAACGAGGGCATGATTTGATAGCAAATGCCGAT

>  <ANSWER LABEL>
lower band

$$$$
>  <SEQUENCE ENTRY>
ACTAGCAGGCCAAGGGTCACTCCAGATTAGTCCG

>  <ANSWER LABEL>
central band

$$$$
>  <SEQUENCE ENTRY>
CCTAGTTGGTCAGGAGCTCACACACCGGATATGA

>  <ANSWER LABEL>
lower band

$$$$
>  <SEQUENCE ENTRY>
GCATATAGATAATACAAGGTGAAAGTCCGATTGT

>  <ANSWER LABEL>
lower band

$$$$
>  <SEQUENCE ENTRY>
CGTCCAAGGTCAGAGAGGTCAGTGAATGCCGAGT

>  <ANSWER LABEL>
central band

$$$$
>  <SEQUENCE ENTRY>
CTTGCTAGGTCATGGTCAGCTAATCTACAGTATG

>  <ANSWER LABEL>
upper band

$$$$
>  <SEQUENCE ENTRY>
CAAACTAGGTCACCGGAAGGTCCAAGTCCGCATG

>  <ANSWER LABEL>
upper band

$$$$
>  <SEQUENCE ENTRY>
ATCACTAGGTAAAAGTTCAGTGAATCCCGAGGAT

>  <ANSWER LABEL>
upper band

$$$$
>  <SEQUENCE ENTRY>
TCTGCTAGGTCAACGAAGGTCAGCTAATCTGCTA

>  <ANSWER LABEL>
upper band

$$$$
>  <SEQUENCE ENTRY>
CGAACTAGATCAGAACAGGACAGTGAAGGATGAT

>  <ANSWER LABEL>
lower band

$$$$

Taken from the supplement of paper PMC6555819.
